- target-system: Alpha-glucosidase (Saccharomyces cerevisiae S288c, UniProt P53341+P38158+P07265)
- test-description: Competitive inhibition of Saccharomyces cerevisiae alpha-glucosidase using pNPG as substrate assessed as inhibition constant preincubated for 15 mins followed by substrate addition and measured after 20 mins by spectrophotometric analysis
- Assay type: protein assay
Recorded Ki for the following compounds

{"columns": ["structure-string", "target-system", "Ki, µM"],
 "data": [
  ["Cc1ccc(C(c2c(N)c3ccccc3oc2=O)c2c(N)c3ccccc3oc2=O)cc1", "Alpha-glucosidase (Saccharomyces cerevisiae S288c, UniProt P53341+P38158+P07265)", 22.4],
  ["O=C(Cn1c(-c2ccc(Cl)cc2)nc2ccccc2c1=O)N/N=C/c1cn(-c2ccccc2)nc1-c1ccc(Br)cc1", "Alpha-glucosidase (Saccharomyces cerevisiae S288c, UniProt P53341+P38158+P07265)", 56],
  ["Cc1ccc(-c2nc3c(C(=O)Nc4ccccc4)c(Nc4ccccc4)nn3c(-c3ccc(Br)cc3)c2N)cc1", "Alpha-glucosidase (Saccharomyces cerevisiae S288c, UniProt P53341+P38158+P07265)", 12],
  ["O=C(COc1ccc(-c2nc(-c3ccccc3)c(-c3ccccc3)[nH]2)cc1)Nc1cccc(Br)c1", "Alpha-glucosidase (Saccharomyces cerevisiae S288c, UniProt P53341+P38158+P07265)", 86.3],
  ["Cc1ccc(-n2cc(/C=N/NC(=O)Nc3ccccc3)c(-c3ccc([N+](=O)[O-])cc3)n2)cc1", "Alpha-glucosidase (Saccharomyces cerevisiae S288c, UniProt P53341+P38158+P07265)", 87]
]}

* * *

- target-system: Alpha-glucosidase (Saccharomyces cerevisiae S288c, UniProt P53341+P38158+P07265)
- test-description: Inhibition of Saccharomyces cerevisiae alpha-glucosidase using p-nitrophenyl glucopyranoside as substrate preincubated for 10 mins followed by substrate addition and measured after 20 mins by spectrophotometric analysis
- Format: protein assay
// classify: if (IC50 < 50 µM) Satisfied else Not satisfied

{"columns": ["structure-string", "target-system", "classification"],
 "data": [
  ["COc1cccc2cc(-c3nnc(SCc4cn(CC(=O)NCc5ccc(F)cc5)nn4)o3)oc12", "Alpha-glucosidase (Saccharomyces cerevisiae S288c, UniProt P53341+P38158+P07265)", "Satisfied"],
  ["O=c1c2ccccc2nc(SCc2cn(Cc3ccc(Br)cc3)nn2)n1CCc1ccccc1", "Alpha-glucosidase (Saccharomyces cerevisiae S288c, UniProt P53341+P38158+P07265)", "Not satisfied"],
  ["O=C(Cn1cc(COc2ccc(-c3nc4ccccc4c(=O)[nH]3)cc2)nn1)Nc1ccccc1", "Alpha-glucosidase (Saccharomyces cerevisiae S288c, UniProt P53341+P38158+P07265)", "Satisfied"],
  ["Nc1c(-c2ccccc2)nc2nc3cc(Cl)c(Cl)cc3n2c1-c1ccccc1", "Alpha-glucosidase (Saccharomyces cerevisiae S288c, UniProt P53341+P38158+P07265)", "Satisfied"],
  ["O=C(Cn1c(-c2ccc(Cl)cc2)nc2ccccc2c1=O)N/N=C/c1cn(-c2ccccc2)nc1-c1ccc(Br)cc1", "Alpha-glucosidase (Saccharomyces cerevisiae S288c, UniProt P53341+P38158+P07265)", "Not satisfied"],
  ["Cc1ccc(-n2cc(/C=N/NC(=O)Nc3ccccc3)c(-c3ccc([N+](=O)[O-])cc3)n2)cc1", "Alpha-glucosidase (Saccharomyces cerevisiae S288c, UniProt P53341+P38158+P07265)", "Not satisfied"]
]}
